Experiment: BSK_hDFCGF_Proliferation: Cell Proliferation Assessment in the BioMAP Diversity Plus: hDFCGF Assay (AID 2283059);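 further: curves fitted for both rise and fall of signal versus DMSO baseline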
Conditions: primary human foreskin fibroblasts
Calls of active or inactive are those of the source. How the source made its calls: active means hit-call score of the fitted dose curve at least 0.9, where 1 is the maximum; inactive means score below 0.9.
Form entry, call: pick from true (1) for active, false (0) for inactive

Use these answered entries as a reference point.
O=C1CCC(C2CCCCC2)CC1    true (1)
CCOC(=O)O[C@H](C)OC(=O)c1ccc2c(c1)cc(C(=O)NC1CCN(C(C)C)CC1)n2Cc1cc(-c2ccc(Cl)s2)on1    true (1)
Cc1ncc(CO)c(CO)c1O    false (0)
CCCCOC(=O)CC(CC(=O)OCCCC)(OC(C)=O)C(=O)OCCCC    false (0)
c1ccc2ccccc2c1    false (0)

input: Test call, this compound: `Cc1cc2c(cc1C(F)(F)F)N(C(=O)Nc1ccc(Oc3cccnc3C)nc1)CC2`
output: true (1)

input: Fill in: this test's call for `CN(C[C@@H](CC[N+]12CCC(C3CCCCC3)(CC1)CC2)c1ccc(Cl)c(Cl)c1)C(=O)c1cc(C(F)(F)F)cc(C(F)(F)F)c1` is ___
output: true (1)

input: Can you look up the reported call for `C[C@]12CC[C@@H]3c4ccc(O)cc4CC[C@H]3[C@@H]1CC[C@H]2O` for me?
output: false (0)

input: # lookup: test call for `Cc1ccc2oc(CN(Cc3ccccc3)C(=O)Nc3c(F)cc(F)cc3F)c(-c3ccc(Cl)cc3)c2c1`
output: false (0)

input: Dear all, I need the recorded test outcome for `COc1cccc([C@H](O)C2CCN(CCc3ccc(F)cc3)CC2)c1OC` , thank you.
output: false (0)

input: What outcome does the record of this test show for `c1ccc(C[n+]2cccc3ccccc32)cc1` ?
output: false (0)

input: I'd appreciate the recorded outcome for `CCCCCCCCCCCCO` from this test.
output: true (1)

input: # lookup: test call for CC(O)CC(C)(C)O (stereo not given)
output: true (1)

input: Per the assay record, what outcome was assigned to `O=C=NCCCCCCN=C=O` ?
output: false (0)

input: Field: outcome | Entry: `CCN(CC)C(=O)c1cc(S(=O)(=O)Cc2ccccc2)c(N2CCC(c3ccccc3)CC2)cc1N(CC)CCN(C)C`
output: true (1)
